Biological target: PD-1/PD-L1 (Homo sapiens, UniProt Q9NZQ7)
Construct: TVMV protease site linker (C)
Sequence (Q9NZQ7 18-239): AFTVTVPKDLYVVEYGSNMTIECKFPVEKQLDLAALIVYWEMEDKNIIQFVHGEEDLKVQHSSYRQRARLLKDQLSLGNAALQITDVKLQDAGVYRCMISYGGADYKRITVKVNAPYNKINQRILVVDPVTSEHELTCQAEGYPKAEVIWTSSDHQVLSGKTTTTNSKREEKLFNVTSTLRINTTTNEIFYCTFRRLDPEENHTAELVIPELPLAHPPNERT
Test: PD-1/PD-L1 Homogenous Time-Resolved Fluorescence (HTRF) binding assay
Conditions: PD-L1-His 10 nM, PD-1-Ig 20 nM
pIC50: −log10 of the molar value.
OBSERVATION TYPE: pIC50

Previously resolved entries follow.
COMPOUND | STUDY SYSTEM | OBSERVATION TYPE | READING
Cc1cc(CN(C)Cc2cc(Cl)c(OCc3cccc(-c4cccc(OCCCN5CC[C@@H](O)C5)c4C)c3C)cc2OCc2cncc(C#N)c2)[nH]n1 | PD-1/PD-L1 (Homo sapiens, UniProt Q9NZQ7) | pIC50 | 8.80
Cc1c(COc2cc(OCc3cncc(C#N)c3)c(CNCc3ncn[nH]3)cc2Cl)cccc1-c1cccc(OCCCN2CC[C@@H](O)C2)c1C | PD-1/PD-L1 (Homo sapiens, UniProt Q9NZQ7) | pIC50 | 8.03
Cc1c(COc2cc(OCc3cncc(C#N)c3)c(CN(C)CCc3nc4ccccc4n3C)cc2Cl)cccc1-c1cccc(OCCCN2CC[C@@H](O)C2)c1C | PD-1/PD-L1 (Homo sapiens, UniProt Q9NZQ7) | pIC50 | 8.48
Cc1c(COc2cc(OCc3cncc(C#N)c3)c(CN(C)Cc3cc(C4CC4)on3)cc2Cl)cccc1-c1cccc(OCCCN2CC[C@@H](O)C2)c1C | PD-1/PD-L1 (Homo sapiens, UniProt Q9NZQ7) | pIC50 | 8.14
CC(=O)NC1CCN(CCCOc2cccc(-c3cccc(COc4cc(OCc5cncc(C#N)c5)c(CN5CCC(c6nnn[nH]6)C5)cc4Cl)c3C)c2C)CC1 (stereo not drawn) | PD-1/PD-L1 (Homo sapiens, UniProt Q9NZQ7) | pIC50 | 9.70

(A) Cc1cc(CNCc2cc(Cl)c(OCc3cccc(-c4cccc(OCCCN5CC[C@@H](O)C5)c4C)c3C)cc2OCc2cncc(C#N)c2)no1
(B) Cc1c(COc2cc(OCc3cncc(C#N)c3)c(CN3CCCCC3c3nnn[nH]3)cc2Cl)cccc1-c1cccc(OCCCN2CC[C@@H](O)C2)c1C (stereo partly drawn)
Param pair: A , B . Output: the one whose pIC50 is numerically greater. Pick one and reply with its label. B
(B: 9.15, A: 8.51)

====

Molecular target: PD-1/PD-L1 (Homo sapiens, UniProt Q9NZQ7)
Construct: TVMV protease site linker (C)
Assay: PD-1/PD-L1 Homogenous Time-Resolved Fluorescence (HTRF) binding assay
Settings: PD-L1-His 10 nM, PD-1-Ig 20 nM
pIC50: −log10 of the molar value.
OBSERVATION TYPE: pIC50

COMPOUND | pIC50
Cc1c(COc2cc(OCc3cncc(C#N)c3)c(CN(C)Cc3c[nH]cn3)cc2Cl)cccc1-c1cccc(OCCCN2CC[C@@H](O)C2)c1C [Example 2007] | 9.22

(a) Cc1c(COc2cc(OCc3cncc(C#N)c3)c(CNCc3nccs3)cc2Cl)cccc1-c1cccc(OCCCN2CC[C@@H](O)C2)c1C [Example 2530]
(b) CCc1csc(CN(C)Cc2cc(Cl)c(OCc3cccc(-c4cccc(OCCCN5CC[C@@H](O)C5)c4C)c3C)cc2OCc2cncc(C#N)c2)n1 [Example 2553]
(c) COc1cc(OCc2cccc(-c3cccc(OCC4CCCN(C)C4)c3Cl)c2C)c(Cl)cc1CNCc1cn[nH]c1 (stereo not drawn) [Example 2056]
(d) Cc1c(COc2cc(OCc3cncc(C#N)c3)c(CN(C)Cc3c[nH]cn3)cc2Cl)cccc1-c1cccc(OCCCN2CCC(O)(CO)CC2)c1Cl [Example 2014]
Given 4 compounds, produce a descending ranking by pIC50. Hello, could you send the labels back in the order asked? Thank you. d, c, a, b

(a) Cc1noc(C)c1CN(C)Cc1cc(Cl)c(OCc2cccc(-c3cccc(OCCCN4CC[C@@H](O)C4)c3C)c2C)cc1OCc1cncc(C#N)c1 [Example 2527]
(b) Cc1c(COc2cc(OCc3cncc(C#N)c3)c(CN(C)C(C)c3nnn[nH]3)cc2Cl)cccc1-c1cccc(OCCCNC[C@H](O)CO)c1C (stereo partly drawn) [Example 1030]
(c) Cc1c(COc2cc(OCc3cncc(C#N)c3)c(CNCc3nccs3)cc2Cl)cccc1-c1cccc(OCC2CCCN(C)C2)c1Cl (stereo not drawn) [Example 2585]
(d) Cc1c(COc2cc(OCc3cncc(C#N)c3)c(CNCc3cc4ccccn4n3)cc2Cl)cccc1-c1cccc(OCC2CCCN(C)C2)c1Cl (stereo not drawn) [Example 2602]
(e) Cc1c(COc2cc(OCc3cncc(C#N)c3)c(CN(C)Cc3nc4ccccc4s3)cc2Cl)cccc1-c1cccc(OCCCN2CC[C@@H](O)C2)c1C [Example 2554]
Please list the entries, largest pIC50 first. Give the labels in the order specified. b, d, c, a, e

====

Target: PD-1/PD-L1 (Homo sapiens, UniProt Q9NZQ7)
Construct: TVMV protease site linker (C)
Experiment: PD-1/PD-L1 Homogenous Time-Resolved Fluorescence (HTRF) binding assay
Details: PD-L1-His 10 nM, PD-1-Ig 20 nM
OBSERVATION TYPE: IC50 (nM)

MOLECULE | MEASUREMENT UNITS | IC50
Cc1c(COc2cc(OCc3cccnn3)c(CNCc3cn[nH]c3)cc2Cl)cccc1-c1cccc(OCC2CCCN(C)C2)c1Cl (stereo not drawn) | nM | 5.6
CC(=O)NC1CCN(CCCOc2cccc(-c3cccc(COc4cc(OCc5cncc(C#N)c5)c(CNC(C)c5nnn[nH]5)cc4Cl)c3C)c2C)CC1 (stereo not drawn) | nM | 3.1
Cc1c(COc2cc(OCc3cncc(C#N)c3)c(CNCCc3cc[nH]n3)cc2Cl)cccc1-c1cccc(OCCCN2CC[C@@H](O)C2)c1C | nM | 1.9
COCc1noc(CNCc2cc(Cl)c(OCc3cccc(-c4cccc(OCCCN5CC[C@@H](O)C5)c4C)c3C)cc2OCc2cncc(C#N)c2)n1 | nM | 6.4

(1) Cc1c(COc2cc(OCc3cncc(C#N)c3)c(CN3CCCC(c4cnn(C)c4)C3)cc2Cl)cccc1-c1cccc(OCC2CCCN(C)C2)c1Cl (stereo not drawn)
(2) Cc1c(COc2cc(OCc3cncc(C#N)c3)c(CNCc3ncccn3)cc2Cl)cccc1-c1cccc(OCC2CCCN(CCC(F)(F)F)C2)c1Cl (stereo not drawn)
Could you tell me which of 1 and 2 has the lower IC50 reading? Write the label of whichever entry you select. 1
(1: 0.2 nM, 2: 75.9 nM)

====

Molecular target: PD-1/PD-L1 (Homo sapiens, UniProt Q9NZQ7)
Construct: TVMV protease site linker (C)
Test: PD-1/PD-L1 Homogenous Time-Resolved Fluorescence (HTRF) binding assay
Details: PD-L1-His 10 nM, PD-1-Ig 20 nM
OBSERVATION TYPE: IC50 (nM)

(a) Cc1c(COc2cc(OCc3cncc(C#N)c3)c(CNC(C(=O)O)c3cnn(C)c3)cc2Cl)cccc1-c1cccc(OCC2CCCN(C)C2)c1Cl (stereo not drawn)
(b) Cc1cc(CNCc2cc(Cl)c(OCc3cccc(-c4cccc(OCC5CCCN(C)C5)c4Cl)c3C)cc2OCc2cncc(C#N)c2)no1 (stereo not drawn)
// pick min by IC50: a , b Refer to your chosen entry by its label in the reply. a
(a: 1.9 nM, b: 2.8 nM)

(1) Cc1c(COc2cc(OCc3cncc(C#N)c3)c(CNCc3ccc4cc[nH]c4c3)cc2Cl)cccc1-c1cccc(OCC2CCCN(C)C2)c1Cl (stereo not drawn)
(2) Cc1c(COc2cc(OCc3cncc(C#N)c3)c(CN3CCC(c4cc[nH]n4)C3)cc2Cl)cccc1-c1cccc(OCCCN2CC[C@@H](O)C2)c1C (stereo partly drawn)
(3) CC(=O)NC1CCN(CCCOc2cccc(-c3cccc(COc4cc(OCc5cncc(C#N)c5)c(CNCc5nnn[nH]5)cc4Cl)c3C)c2Cl)CC1
Parameters: sort_field (IC50), sort_dir (desc). Returns: the labels arranged in the requested order. 2, 1, 3

(P) Cc1c(COc2cc(OCc3cncc(C#N)c3)c(CNCc3ccnc(C(N)=O)n3)cc2Cl)cccc1-c1cccc(OCCCN2CC[C@@H](O)C2)c1C
(Q) Cc1c(COc2cc(OCc3cncc(C#N)c3)c(CN(C)Cc3cn[nH]c3)cc2Cl)cccc1-c1cccc(OCC2CCCN(C)C2)c1Cl (stereo not drawn)
(R) Cc1c(COc2cc(OCc3cncc(C#N)c3)c(CNCc3nc4ccccc4n3Cc3ccccc3)cc2Cl)cccc1-c1cccc(OCCCN2CC[C@@H](O)C2)c1C
(S) Cc1onc(-c2ccccc2)c1CN(C)Cc1cc(Cl)c(OCc2cccc(-c3cccc(OCCCN4CC[C@@H](O)C4)c3C)c2C)cc1OCc1cncc(C#N)c1
Your job: order these 4 records by IC50, ascending. Give the labels in the order specified. P, Q, R, S

(A) [2H]C([2H])([2H])C(NCc1cc(Cl)c(OCc2cccc(-c3cccc(OCC4CCCN(C)C4)c3Cl)c2C)cc1OCc1cncc(C#N)c1)(c1ncon1)C([2H])([2H])[2H] (stereo not drawn)
(B) Cc1c(COc2cc(OCc3cncc(C#N)c3)c(CN(C)Cc3cc(-c4ccccc4)on3)cc2Cl)cccc1-c1cccc(OCCCN2CC[C@@H](O)C2)c1C
Quick check, higher IC50 between A and B ? Give the label under which the chosen entry appears. B
(B: 192 nM, A: 3 nM)
